Recorded growth for the following molecules
Test system: NCI-H23 lung
Protocol description: NCI-60 one-dose screen, 48 h (100 = growth as untreated, 0 = no growth, -100 = all killed)
Study conditions: 10 µM
Protocol: Growth inhibition of the NCI-H23 human Non-Small Cell Lung tumor cell line is measured as a screen for anti-cancer activity. Cells are grown in 96 well plates and exposed to the test compound for 48 hours. Compounds are tested at a single concentration, which is 10^-5 M for most compounds. The reported endpoint is percent growth (GI% or GIPRCNT), where numbers from 0 - 100% represent growth inhibition, and numbers from -100% - 0 represent cell death. […]
About 83,000 compounds went through this panel and 20% of them were active in at least one assay; those are over-represented in the sample as a whole.
Write the value in % as a bare number.

# example entries with known answers
{"Molecule": "CCOc1ccccc1/C=N/Nc1nc2ccccc2o1", "Unit abbreviation": "%", "growth": 91.8}
{"Molecule": "S=C1NCc2cncnc2N1", "Unit abbreviation": "%", "growth": 109}
{"Molecule": "CCn1c(=O)n(C)c2c(=O)n(C)c(=O)n(C)c21", "Unit abbreviation": "%", "growth": 98.9}

Any idea what growth came out for "CCO/C=C1\SC(=S)N(c2cccc(C)c2)C1=O" on NCI-H23 lung?
108

Continue with "O=C(/C(=N/O)c1ccccc1)c1ccccc1"
105

Another molecule: "O=C(O)C(Cc1ccccc1)C(=O)O"
95.1

Please do the same for "COc1cc(CCN=Cc2ccccc2O)c([N+](=O)[O-])cc1OC" as well.
100

// same read-out, input: "Cc1nc2ccccc2c2nnc(SCC(=O)N(Cc3ccccc3)c3ccccc3)n12"
89.1

Same question, "O=C(O)CCCc1ccccc1" this time
103

How about this molecule: "CC1(C)OC(=O)C(c2ccsc2)C(=O)O1"
95

Likewise for "CC(=O)Nc1cccc(Cl)c1C" ?
103

Consider next the molecule "O=C(Nc1cccc(NC(=O)Nc2cc(C(F)(F)F)ccc2Cl)c1)Nc1cc(C(F)(F)F)ccc1Cl" in the same way.
20.4

Same for CC(=O)OCC1=CC2OC(=O)C3=COC(OC4OC(CO)C(O)C(O)C4O)C1C32 (stereo not drawn)
72.4
